# System: UO-31
# Measurement notes: NCI 60 single concentration growth inhibition
# Assay type: cell-based, human
# Test conditions: UO-31, Renal cancer, 10 μM
Let's look at some compounds and their measured GI%.
Outcome measure: GI%

Compound	Readout value
COC(=O)COc1cc(C=NNC(=O)Cn2c(-c3ccc(OC)cc3)nc3cc(Cl)c(Cl)cc32)ccc1OC [Compound 10o]	18.26%
CCOC(=O)C(C)Oc1ccc(C=NNC(=O)Cn2c(-c3ccc(OC)cc3)nc3cc(Cl)c(Cl)cc32)cc1 (stereo not shown) [Compound 10j]	25.57%
COc1ccc(-c2nc3cc(Cl)c(Cl)cc3n2CC(=O)NN=Cc2cccc(OCC(=O)O)c2)cc1 [Compound 10e]	10.58%
COc1ccc(-c2nc3cc(Cl)c(Cl)cc3n2CC(=O)NN=Cc2ccc(OC)c(O)c2)cc1 [Compound 10k]	55.02%

----------
# Test system: SNB-19
# Measurement notes: NCI 60 single concentration growth inhibition
# Assay type: cell-based, human
# Test conditions: Homo sapiens, SNB-19, CNS cancer, read-out: GI%
Outcome measure: inhibition at 10 µM (%)

Compound	Value relation sign	Readout value
COc1ccc(-c2nc3cc(Cl)c(Cl)cc3n2CC(=O)NN=Cc2ccc(O)cc2)cc1 [Compound 10b]	=	39
COc1ccc(C=NNC(=O)Cn2c(-c3ccc(OC)cc3)nc3cc(Cl)c(Cl)cc32)cc1 [Compound 10d]	=	50.5
COC(=O)COc1cc(C=NNC(=O)Cn2c(-c3ccc(OC)cc3)nc3cc(Cl)c(Cl)cc32)ccc1OC [Compound 10o]	<	5
COc1ccc(-c2nc3cc(Cl)c(Cl)cc3n2CC(=O)NN=Cc2cccc(OCC(=O)O)c2)cc1 [Compound 10e]	<	5
COc1ccc(-c2nc3cc(Cl)c(Cl)cc3n2CC(=O)NN=Cc2cccc(OC)c2)cc1 [Compound 10c]	=	32.4
COc1ccc(-c2nc3cc(Cl)c(Cl)cc3n2CC(=O)NN=Cc2ccc(OC)c(O)c2)cc1 [Compound 10k]	=	40.3
COC(=O)COc1ccc(C=NNC(=O)Cn2c(-c3ccc(OC)cc3)nc3cc(Cl)c(Cl)cc32)cc1OC [Compound 10p]	<	5
COC(=O)COc1ccc(C=NNC(=O)Cn2c(-c3ccc(OC)cc3)nc3cc(Cl)c(Cl)cc32)cc1 [Compound 10h]	=	8.19
COc1ccc(-c2nc3cc(Cl)c(Cl)cc3n2CC(=O)NN=Cc2ccc(O)c(OC)c2)cc1 [Compound 10l]	=	37.3
COc1ccc(-c2nc3cc(Cl)c(Cl)cc3n2CC(=O)NN=Cc2ccc(OCC(=O)O)cc2)cc1 [Compound 10f]	<	5
COC(=O)COc1cccc(C=NNC(=O)Cn2c(-c3ccc(OC)cc3)nc3cc(Cl)c(Cl)cc32)c1 [Compound 10g]	<	5
CCOC(=O)C(C)Oc1ccc(C=NNC(=O)Cn2c(-c3ccc(OC)cc3)nc3cc(Cl)c(Cl)cc32)cc1 (stereo not shown) [Compound 10j]	=	11.2
COc1ccc(-c2nc3cc(Cl)c(Cl)cc3n2CC(=O)NN=Cc2cccc(O)c2)cc1 [Compound 10a]	=	50.4

----------
# inhibition at 10 µM per record follows
# Tested on: COLO 205
# Measurement notes: NCI 60 single concentration growth inhibition
# Format: cell-based, human
# Test conditions: Homo sapiens, COLO 205, Colon cancer, read-out: GI%
Outcome measure: inhibition at 10 µM (%)

Compound	Experimental target	Outcome measure	Value relation sign	Readout value
COc1ccc(-c2nc3cc(Cl)c(Cl)cc3n2CC(=O)NN=Cc2ccc(OC)c(O)c2)cc1 [Compound 10k]	COLO 205	inhibition at 10 µM	=	22.1
COc1ccc(-c2nc3cc(Cl)c(Cl)cc3n2CC(=O)NN=Cc2cccc(O)c2)cc1 [Compound 10a]	COLO 205	inhibition at 10 µM	=	46
COC(=O)COc1cccc(C=NNC(=O)Cn2c(-c3ccc(OC)cc3)nc3cc(Cl)c(Cl)cc32)c1 [Compound 10g]	COLO 205	inhibition at 10 µM	<	5
COc1ccc(-c2nc3cc(Cl)c(Cl)cc3n2CC(=O)NN=Cc2ccc(OCC(=O)O)cc2)cc1 [Compound 10f]	COLO 205	inhibition at 10 µM	<	5
CCOC(=O)C(C)Oc1ccc(C=NNC(=O)Cn2c(-c3ccc(OC)cc3)nc3cc(Cl)c(Cl)cc32)cc1 (stereo not shown) [Compound 10j]	COLO 205	inhibition at 10 µM	=	8.58
COC(=O)COc1ccc(C=NNC(=O)Cn2c(-c3ccc(OC)cc3)nc3cc(Cl)c(Cl)cc32)cc1 [Compound 10h]	COLO 205	inhibition at 10 µM	=	51.5
COC(=O)COc1cc(C=NNC(=O)Cn2c(-c3ccc(OC)cc3)nc3cc(Cl)c(Cl)cc32)ccc1OC [Compound 10o]	COLO 205	inhibition at 10 µM	<	5
COc1ccc(-c2nc3cc(Cl)c(Cl)cc3n2CC(=O)NN=Cc2ccc(O)c(OC)c2)cc1 [Compound 10l]	COLO 205	inhibition at 10 µM	<	5
COc1ccc(C=NNC(=O)Cn2c(-c3ccc(OC)cc3)nc3cc(Cl)c(Cl)cc32)cc1 [Compound 10d]	COLO 205	inhibition at 10 µM	=	42.7
COc1ccc(-c2nc3cc(Cl)c(Cl)cc3n2CC(=O)NN=Cc2ccc(O)cc2)cc1 [Compound 10b]	COLO 205	inhibition at 10 µM	=	9.38
COc1ccc(-c2nc3cc(Cl)c(Cl)cc3n2CC(=O)NN=Cc2cccc(OCC(=O)O)c2)cc1 [Compound 10e]	COLO 205	inhibition at 10 µM	<	5
COC(=O)COc1ccc(C=NNC(=O)Cn2c(-c3ccc(OC)cc3)nc3cc(Cl)c(Cl)cc32)cc1OC [Compound 10p]	COLO 205	inhibition at 10 µM	=	34.9
COc1ccc(-c2nc3cc(Cl)c(Cl)cc3n2CC(=O)NN=Cc2cccc(OC)c2)cc1 [Compound 10c]	COLO 205	inhibition at 10 µM	=	8.17

----------
# Experimental target: BRAFWT (Homo sapiens, UniProt P15056)
# Construct: purchased BPS Biosciences 78316
# Sequence (P15056 whole entry): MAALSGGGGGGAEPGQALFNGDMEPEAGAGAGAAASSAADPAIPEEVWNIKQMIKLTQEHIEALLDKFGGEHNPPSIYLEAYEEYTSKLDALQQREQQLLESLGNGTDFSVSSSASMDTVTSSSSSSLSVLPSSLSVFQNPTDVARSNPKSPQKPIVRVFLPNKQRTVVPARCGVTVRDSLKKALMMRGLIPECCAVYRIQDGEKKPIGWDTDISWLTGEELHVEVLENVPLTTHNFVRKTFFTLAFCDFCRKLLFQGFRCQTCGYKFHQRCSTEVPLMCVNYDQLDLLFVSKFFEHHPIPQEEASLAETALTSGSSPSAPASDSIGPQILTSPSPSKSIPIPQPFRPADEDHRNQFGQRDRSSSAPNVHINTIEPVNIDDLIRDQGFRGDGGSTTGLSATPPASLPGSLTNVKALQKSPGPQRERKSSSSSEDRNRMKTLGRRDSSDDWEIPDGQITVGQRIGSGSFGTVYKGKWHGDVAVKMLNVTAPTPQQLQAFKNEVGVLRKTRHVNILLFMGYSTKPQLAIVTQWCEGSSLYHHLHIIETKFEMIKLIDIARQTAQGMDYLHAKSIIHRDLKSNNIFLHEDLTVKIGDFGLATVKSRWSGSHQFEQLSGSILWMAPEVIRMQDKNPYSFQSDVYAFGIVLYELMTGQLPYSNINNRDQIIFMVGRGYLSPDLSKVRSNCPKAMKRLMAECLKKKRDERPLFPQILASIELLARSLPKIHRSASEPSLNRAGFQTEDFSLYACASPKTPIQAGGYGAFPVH
# Measurement notes: BRAFWT kinase assay kit (Kinase-Glo Max luminescence)
# Assay type: biochemical
# Test conditions: mean of two independent experiments ± SD
Outcome measure: IC50 (µM)

Compound	Outcome measure	Readout value
COC(=O)COc1ccc(C=NNC(=O)Cn2c(-c3ccc(OC)cc3)nc3cc(Cl)c(Cl)cc32)cc1 [Compound 10h]	IC50	1.72

----------
# Test system: HOP-62
# Measurement notes: NCI 60 single concentration growth inhibition
# Type: cell-based, human
# Test conditions: Homo sapiens, HOP-62, Non-small cell lung cancer, read-out: GI%
# Experimental: The synthesized dichlorobenzimidazoles 10a–p were assayed for their influence on divers cancer cell lines according to the method presented in the Additional file A. 5. Screening of cytotoxic activity against a panel of sixty human tumor cell lines The selected compounds by NCI were evaluated for their anticancer activity in a two-stage process. […] Three dose response parameters are calculated for each experimental agent. […]
Outcome measure: inhibition at 10 µM

Molecule	Outcome measure	Readout value
COC(=O)COc1cc(C=NNC(=O)Cn2c(-c3ccc(OC)cc3)nc3cc(Cl)c(Cl)cc32)ccc1OC [Compound 10o]	inhibition at 10 µM	< 5%
COc1ccc(-c2nc3cc(Cl)c(Cl)cc3n2CC(=O)NN=Cc2ccc(O)c(OC)c2)cc1 [Compound 10l]	inhibition at 10 µM	12.4%
COc1ccc(-c2nc3cc(Cl)c(Cl)cc3n2CC(=O)NN=Cc2ccc(OCC(=O)O)cc2)cc1 [Compound 10f]	inhibition at 10 µM	< 5%
COc1ccc(-c2nc3cc(Cl)c(Cl)cc3n2CC(=O)NN=Cc2ccc(O)cc2)cc1 [Compound 10b]	inhibition at 10 µM	19.3%
COc1ccc(C=NNC(=O)Cn2c(-c3ccc(OC)cc3)nc3cc(Cl)c(Cl)cc32)cc1 [Compound 10d]	inhibition at 10 µM	23.6%
CCOC(=O)C(C)Oc1ccc(C=NNC(=O)Cn2c(-c3ccc(OC)cc3)nc3cc(Cl)c(Cl)cc32)cc1 (stereo not shown) [Compound 10j]	inhibition at 10 µM	< 5%
COC(=O)COc1ccc(C=NNC(=O)Cn2c(-c3ccc(OC)cc3)nc3cc(Cl)c(Cl)cc32)cc1OC [Compound 10p]	inhibition at 10 µM	< 5%
COc1ccc(-c2nc3cc(Cl)c(Cl)cc3n2CC(=O)NN=Cc2ccc(OC)c(O)c2)cc1 [Compound 10k]	inhibition at 10 µM	< 5%
COc1ccc(-c2nc3cc(Cl)c(Cl)cc3n2CC(=O)NN=Cc2cccc(OCC(=O)O)c2)cc1 [Compound 10e]	inhibition at 10 µM	< 5%
COC(=O)COc1cccc(C=NNC(=O)Cn2c(-c3ccc(OC)cc3)nc3cc(Cl)c(Cl)cc32)c1 [Compound 10g]	inhibition at 10 µM	< 5%
COC(=O)COc1ccc(C=NNC(=O)Cn2c(-c3ccc(OC)cc3)nc3cc(Cl)c(Cl)cc32)cc1 [Compound 10h]	inhibition at 10 µM	< 5%
COc1ccc(-c2nc3cc(Cl)c(Cl)cc3n2CC(=O)NN=Cc2cccc(O)c2)cc1 [Compound 10a]	inhibition at 10 µM	24.1%
COc1ccc(-c2nc3cc(Cl)c(Cl)cc3n2CC(=O)NN=Cc2cccc(OC)c2)cc1 [Compound 10c]	inhibition at 10 µM	6.68%
